Give IC50 for every item shown.
- measured_target: Short transient receptor potential channel 6 (Mus musculus)
- assay_text: TRPC6 inhibitor potency, dose response, cell-based, mouse TRPC6, HEK293, membrane potential (AID 2696)
- experimental_setup: TRPC6-expressing HEK293 cells, membrane potential dye fluorescence, acetylcholine-stimulated

Below are worked cases with known answers.
Input: Fill in the recorded IC50 for this compound, with Short transient receptor potential channel 6 (Mus musculus) as test system: CN(C)CCCOC(=O)C1c2ccccc2Oc2ccccc21
Output: 6.31 µM

Input: Fill in the recorded IC50 for this compound, with Short transient receptor potential channel 6 (Mus musculus) as test system: O=C(Nc1ccccc1)Nc1ncc([N+](=O)[O-])s1
Output: 35.5 µM

Input: Fill in the recorded IC50 for this compound, with Short transient receptor potential channel 6 (Mus musculus) as test system: Cc1cc(C)n(-c2nc(NCCCN(C)C)c3c4c(sc3n2)CCCC4)n1
Output: 44.7 µM

Input: Fill in the recorded IC50 for this compound, with Short transient receptor potential channel 6 (Mus musculus) as test system: COc1ccc2ccccc2c1CNC(C)CCc1ccccc1 (configuration not stated)
Output: 15.8 µM

Input: Fill in the recorded IC50 for this compound, with Short transient receptor potential channel 6 (Mus musculus) as test system: COc1cc(-c2nc3ccc(C)cn3c2Nc2ccc3c(c2)OCCO3)ccc1O
Output: 44.7 µM

Input: Fill in the recorded IC50 for this compound, with Short transient receptor potential channel 6 (Mus musculus) as test system: O=S(=O)(Nc1nc2ccccc2[nH]1)c1ccc(Cl)cc1
Output: 7.08 µM

Input: Fill in the recorded IC50 for this compound, with Short transient receptor potential channel 6 (Mus musculus) as test system: COCCNC(=O)c1cc2c(=O)n3cccc(C)c3nc2n(Cc2ccncc2)c1=N
Output: 39.8 µM

Input: Fill in the recorded IC50 for this compound, with Short transient receptor potential channel 6 (Mus musculus) as test system: S=C1N(c2ccccc2)C(c2ccc(Cl)cc2)N2CCCN12 (configuration not stated)
Output: 17.8 µM

// each compound listed below needs its IC50
1. COC(=O)c1ccc(NC2(C#N)C(=O)Nc3ccccc32)cc1 (configuration not stated)
2. CCN1CCN(c2nc3ccccc3nc2C(C#N)C(=O)OCc2ccccc2)CC1 (configuration not stated)

Output:
["50.1 µM", "70.8 µM"]

// each compound listed below needs its IC50
1. Cn1c2c(c(=O)n(C)c1=O)C(C(F)(F)F)(C(F)(F)F)N=C(c1ccc(Cl)cc1)N2
2. COc1ccc(-c2cc(=Nc3ccc(C)cc3)c3ccccc3o2)cc1

Output:
1. 7.94 µM
2. 44.7 µM

// each compound listed below needs its IC50
1. O=C1c2ccccc2-c2onc3c(N4CCN(CCO)CC4)cc(N4CCN(C(=O)c5ccco5)CC4)c1c23
2. O=C1Nc2ccccc2/C1=N\N=C\C1=C(N2CCOCC2)C(=C\c2ccccc2)/CC1
3. CN(C)CCOc1nc(-c2ccccc2)nc2c1oc1ccccc12
4. CCN(CC)CCCOC(=O)C1(c2ccccc2)CCCC1
5. Cc1ccc(C2N(c3ccccc3)C(=S)N3CCCN23)cc1 (configuration not stated)
6. Fc1ccc([C@@H]2CCNC[C@H]2COc2ccc3c(c2)OCO3)cc1

Output:
["79.4 µM", "39.8 µM", "70.8 µM", "11.2 µM", "25.1 µM", "44.7 µM"]

// each compound listed below needs its IC50
1. Fc1ccc2[nH]c3c(c2c1)CN(C(=S)NCc1ccccc1)CC3
2. Cc1c(CCCN)c2ccccc2n1Cc1ccccc1
3. Cn1c(=O)c2c(nc(SCCN3CCCCC3)n2Cc2ccccc2)n(C)c1=O
4. CN(C)CCN(C(=O)c1ccc2c(c1)OCCO2)c1nc2c(Cl)cccc2s1

Output:
1. 31.6 µM
2. 70.8 µM
3. 70.8 µM
4. 50.1 µM
